For reference, the following Ki results for Tyrosine-protein kinase JAK2 (Homo sapiens, UniProt O60674) were taken from various sources.

Sample records with Ki:
- CCCn1cc(-c2ncnc3[nH]ccc23)cn1: < 0.1 µM
- COc1cc(C2Nc3ccccc3-c3ccnc4[nH]cc2c34)cc(F)c1O (centres unmarked): < 0.25 µM
- CO[C@H]1CCN(c2ccn(-c3cc(-c4c(F)cccc4C#N)nc4c3C(=O)NC4)n2)C[C@@H]1O: 0.01 to 0.1 µM
- Cn1cc2c3c(ccnc31)-c1cccnc1NC2c1ccc(O)cc1 (centres unmarked): < 0.25 µM
- C[C@]1(O)CN(c2ccn(-c3cc(-c4c(F)cccc4C#N)nc4c3C(=O)NC4)n2)C[C@@](C)(O)C1: 0.1 to 1 µM
- N#Cc1cccc(C(=O)Nc2ccnc(-c3cnn4cccnc34)c2)c1: 0.1 to 0.5 µM
- CC(C)N(CCC(F)(F)F)C(=O)c1cc(-c2ncnc3[nH]ccc23)co1: 0.1 to 0.5 µM
- N#Cc1cccc(F)c1-c1cc(Nc2ccc(N3CC4(CC4)C(O)C4(CC4)C3)cn2)c2c(n1)CNC2=O: ≤ 0.01 µM

Param readout = Ki; param system = Tyrosine-protein kinase JAK2 (Homo sapiens, UniProt O60674); param query = `CCC[C@H](Nc1cc(-c2cnn3cccnc23)ncn1)c1ccc(F)cc1F` ; response: value
< 0.01 µM

Also, `CC(C)[C@@H](Nc1nc(-c2c[nH]c3ncccc23)ncc1F)C(=O)NCC(F)(F)F` please.
≥ 0.5 µM

Also, Oc1ccc(C2Nc3ccccc3-c3ccnc4[nH]cc2c34)c(Cl)c1 (centres unmarked) please.
< 0.25 µM

Also, CC(C)(C)OC(=O)N1CCCC(C(=O)Nc2nc(-c3ncnc4[nH]ccc34)cs2)C1 (centres unmarked) please.
0.1 to 0.5 µM

Also, Cc1ccc(COc2ccccc2C2Nc3ccccc3-c3ccnc4[nH]cc2c34)cc1 (centres unmarked) please.
> 2.5 µM
